biological target: Gastrin/cholecystokinin type B receptor (Cavia porcellus); test: Ability to inhibit the binding of [125I]-gastrin to gastric glands in guinea pig.
For each record, check the reported IC50: if it is below 500 nM write t, else write f.

molecule="CC(C)(C)OC(=O)CN1C(=O)C(NC(=O)Nc2cccc3ccccc23)CCc2ccccc21 (stereo unspecified)" measured_target="Gastrin/cholecystokinin type B receptor (Cavia porcellus)" assigned_class=t
molecule="CN1CCN(C(=O)CN2C(=O)C(NC(=O)Nc3ccc(Cl)cc3)N=C(c3ccccc3)c3ccccc32)CC1 (stereo unspecified)" measured_target="Gastrin/cholecystokinin type B receptor (Cavia porcellus)" assigned_class=t
molecule="O=C(Nc1cccc2ccccc12)NC1CCc2ccccc2N(CC(=O)N2CCCC2)C1=O (stereo unspecified)" measured_target="Gastrin/cholecystokinin type B receptor (Cavia porcellus)" assigned_class=t
molecule="CC(C)(C)OC(=O)CN1C(=O)C(NC(=O)Nc2ccc(Cl)cc2)CCc2ccccc21 (stereo unspecified)" measured_target="Gastrin/cholecystokinin type B receptor (Cavia porcellus)" assigned_class=t
molecule="COc1cccc(NC(=O)NC2CCc3ccccc3N(CC(=O)O)C2=O)c1 (stereo unspecified)" measured_target="Gastrin/cholecystokinin type B receptor (Cavia porcellus)" assigned_class=f
molecule="Cc1cccc(NC(=O)NC2CCc3ccccc3N(CC(=O)N3CCN(C)CC3)C2=O)c1 (stereo unspecified)" measured_target="Gastrin/cholecystokinin type B receptor (Cavia porcellus)" assigned_class=f
